- Tested on: TSSK1B
- conditions_used: concentration: 1 μM, replicates: in singlicate; n = 1;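 also: KINOMEscan kinase panel screen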
Lab note: compare %Inh with 5%, writing 1 (yes) if less and 0 (no) if equal or more.

# molecule, category_label
data = [
    ("COc1cc2ncnc(Nc3ccc(OCc4ccccc4Br)c(Cl)c3)c2cc1OC.Cl", "0 (no)"),
    ("Cl.c1ccc(Cn2ncc3cc(Nc4ncnc5ccccc45)ccc32)cc1", "1 (yes)"),
    ("COc1ccc(Nc2nccc(N3CCC(NC(=O)Nc4ccc5c(c4)OCO5)C3)n2)cc1 (stereo not drawn)", "1 (yes)"),
    ("Nc1n[nH]c2nnc(-c3ccccc3)cc12", "0 (no)"),
    ("CS(=O)(=O)CCNCc1ccc(-c2ccc3ncnc(Nc4ccc(OCc5ccccc5)c(Cl)c4)c3c2)o1.Cl", "0 (no)"),
    ("Fc1cccc(COc2ccc(Nc3ncnc4nn5ccccc5c34)cc2Cl)c1", "1 (yes)"),
    ("CC(=O)Nc1n[nH]c2ncc(-c3ccccc3)cc12", "1 (yes)"),
    ("Nc1nc(-c2ccc3c(N)n[nH]c3c2)cc(N2CCCCC2)n1", "1 (yes)"),
    ("CSc1nn2c(=O)cc(N3CCOCC3)nc2n1Cc1cccc(Cl)c1Cl", "0 (no)"),
    ("O=C(NCCCN1CCCC1=O)c1cnc(NCc2cc(Cl)ccc2Cl)nc1NC1CCNCC1", "1 (yes)"),
    ("CC(C)N1CCC(n2cnc(-c3ccc(F)cc3)c2-c2ccnc(N)n2)CC1", "1 (yes)"),
    ("Nc1nc(-c2ccc3c(N)n[nH]c3c2)cc(N2CCC[C@@H](C(=O)Nc3ccccc3)C2)n1.O=C(O)C(F)(F)F.O=C(O)C(F)(F)F", "1 (yes)"),
    ("Cc1cccc(-c2nc(Nc3ccc4[nH]nnc4c3)c3ccccc3n2)n1", "1 (yes)"),
    ("Clc1cccc(-c2nc(Nc3ccncc3)c3ccccc3n2)c1", "0 (no)"),
    ("CCn1c(-c2ccncc2)nc2cnccc21", "0 (no)"),
    ("CCc1nc(-c2cccc(C)c2)c(-c2ccnc(NC(=O)c3ccccc3)c2)s1", "1 (yes)"),
    ("Fc1cccc(COc2ccc(Nc3ncnc4sc(-c5ccc[nH]5)cc34)cc2Cl)c1", "1 (yes)"),
]

----------
- Test system: RPS6KA4(Kin.Dom.1-N-terminal)
- conditions_used: concentration: 1 μM, replicates: in singlicate; n = 1

# compound, experimental_system, unit_label, %Inh
data = [
    ("CSc1ccc(NC2=C(c3ccccc3Cl)C(=O)NC2=O)cc1 [SB-342411]", "RPS6KA4(Kin.Dom.1-N-terminal)", "%", 0),
    ("FC(F)(F)c1cc(Nc2nccc(-c3c(-c4ccc(Cl)cc4)nn4ncccc34)n2)ccc1Cl [GW829351]", "RPS6KA4(Kin.Dom.1-N-terminal)", "%", 0),
    ("Cc1cccc(-c2nc(Nc3ccc4[nH]nnc4c3)c3ccccc3n2)n1 [GW867587]", "RPS6KA4(Kin.Dom.1-N-terminal)", "%", 0),
    ("Cl.O=S(=O)(c1cccc(F)c1)c1ccc(Nc2ncnc3cc(Br)sc23)cc1Cl [GSK306886]", "RPS6KA4(Kin.Dom.1-N-terminal)", "%", 16),
    ("CCn1c(-c2ccncc2)nc2cnccc21 [SB-735216]", "RPS6KA4(Kin.Dom.1-N-terminal)", "%", 0),
    ("Fc1cccc(COc2ccc(Nc3ncnc4nn5ccccc5c34)cc2Cl)c1 [GW689066]", "RPS6KA4(Kin.Dom.1-N-terminal)", "%", 17),
    ("O=C(c1ccc(-c2cc(-c3c[nH]nc3-c3ccccn3)ccn2)cc1)N1CCCC1 [GW792479]", "RPS6KA4(Kin.Dom.1-N-terminal)", "%", 13),
    ("CC(C)N1CCC(n2cnc(-c3ccc(F)cc3)c2-c2ccnc(N)n2)CC1 [SB-223132]", "RPS6KA4(Kin.Dom.1-N-terminal)", "%", 14),
    ("C[C@H]1CC[C@@H](C(=O)Nc2ccccc2)CN1c1cc(-c2ccc3c(N)n[nH]c3c2)nc(N)n1 [GSK2283293]", "RPS6KA4(Kin.Dom.1-N-terminal)", "%", 6),
]

----------
- System: PRKD3
- conditions_used: concentration: 1 μM, replicates: in singlicate; n = 1
measurement_kind: %Inh (%)

# compound, measured_value
records = [
    ("Clc1cc(Nc2ncnc3cc[nH]c23)ccc1OCc1ccccn1", 0),
    ("FC(F)(F)c1ccc(-c2nn3ncccc3c2-c2ccnc(Nc3cccc(C(F)(F)F)c3)n2)cc1 [GW828205]", 0),
    ("CCc1nc(-c2cccc(C)c2)c(-c2ccnc(NC(=O)c3ccccc3)c2)s1", 0),
    ("CCC(CC)(CC)n1cnc2c(N)ncnc21 [SKF-97620]", 0),
    ("Cc1ccc(C)c(NC(=O)NCCNc2ccnc(Nc3ccc(F)cc3)n2)c1 [GSK1379878]", 0),
    ("O=c1cc(N2CCOCC2)nc2n(Cc3cccc(Cl)c3)ccn12 [GSK2296823]", 15),
    ("Clc1ccc(-c2cc(-c3c[nH]nc3-c3ccccn3)ccn2)cc1 [GW681251]", 25),
    ("c1ccc(-c2ccc3c(-c4ccnc(Nc5ccc6c(c5)OCCO6)n4)cnn3n2)cc1 [GW818941]", 16),
    ("CCCc1ccc(S(=O)(=O)NC2CCN(c3ccnc(Nc4ccc(OC)cc4)n3)C2)cc1 (stereo not drawn) [GSK1379737]", 9),
    ("Cl.Cl.c1ccc(-c2cc3ccncc3cc2OC2CCNCC2)cc1 [GSK1122999]", 0),
    ("C[C@@H]1CCN(C(=O)CO)C[C@@H]1N(C)c1ncnc2[nH]ccc12", 7),
    ("COC(=O)c1c(-c2ccccc2)c2cc(Cl)ccc2c(=O)n1Cc1ccc(S(C)(=O)=O)cc1", 0),
    ("C[C@H]1CC[C@@H](C(=O)Nc2ccccc2)CN1c1cc(-c2ccc3c(N)n[nH]c3c2)nc(N)n1 [GSK2283293]", 0),
    ("Cc1ccc(NC(=O)c2cccc(C#N)c2)cc1-c1ccc(C(=O)Nc2ccncc2)cc1 [GSK1398463]", 31),
    ("Nc1nc(-c2cccnc2)c(-c2ccnc3ccccc23)s1 [GW684083]", 0),
    ("Fc1ccc(-c2ncn(CCCNCc3ccccc3)c2-c2ccncc2)cc1", 27),
    ("O=C(Nc1n[nH]c2nc(-c3ccco3)c(Br)cc12)c1ccc(CN2CCCC2)cc1.O=C(O)[C@H](O)[C@@H](O)C(=O)O [SB-742352]", 0),
    ("CNc1nccc(-c2c(-c3ccc(F)cc3)ncn2C2CCN(C)CC2)n1 [SB-222903]", 0),
]

----------
Each record here notes measured %Inh.
- Tested on: ITK
- conditions_used: concentration: 1 μM, replicates: in singlicate; n = 1

# molecule, %Inh (%)
records = [
    ("Oc1ccc2ncnc(Nc3ccc(OCc4ccccc4)cc3)c2c1 [GI262866]", 4),
    ("O=C(NCCCN1CCCC1=O)c1cnc(NCc2cc(Cl)ccc2Cl)nc1NC1CCNCC1", 0),
    ("Nc1nc(-c2ccc3c(N)n[nH]c3c2)cc(N2CCC[C@@H](C(=O)Nc3ccccc3)C2)n1.O=C(O)C(F)(F)F.O=C(O)C(F)(F)F [GSK2288359]", 0),
    ("CC(=O)Nc1n[nH]c2ncc(-c3ccccc3)cc12 [SB-548492]", 0),
    ("Cl.Fc1ccccc1COc1ccc(Nc2ncnc3ccc(-c4nnc(C(F)(F)F)o4)cc23)cc1Cl [GW424170]", 4),
    ("CN1CCC(n2cnc(-c3ccc(F)cc3)c2-c2ccnc(NC3CCNCC3)n2)CC1 [SB-229482]", 0),
    ("CCc1nc(-c2cccc(C)c2)c(-c2ccnc(NC(=O)c3ccccc3)c2)s1", 16),
    ("Cn1cc(-c2ccc3c(c2)CCN3C(=O)Cc2cccc(C(F)(F)F)c2)c2c(N)ncnc21 [GSK2606414]", 12),
]

----------
- System: CSNK1E
- conditions_used: concentration: 1 μM, replicates: in singlicate; n = 1
Each record here notes measured %Inh.

# compound, experimental_system, unit_label, %Inh
measured = [
    ("O=c1cc(N2CCOCC2)nc2n(Cc3cccc(Cl)c3)ccn12", "CSNK1E", "%", 34),
    ("Clc1cc(Nc2ncnc3cc[nH]c23)ccc1OCc1ccccn1", "CSNK1E", "%", 4),
    ("Nc1n[nH]c2nnc(-c3ccccc3)cc12", "CSNK1E", "%", 28),
    ("O=C(Nc1ccccc1F)NC1CCN(c2ccnc(Nc3ccc(F)cc3)n2)C1 (stereo not shown)", "CSNK1E", "%", 27),
    ("Cc1ccc(O)cc1Nc1cc(C(F)(F)F)nc2ccc(-c3ccncc3)cc12", "CSNK1E", "%", 0),
    ("COc1cc2ncnc(Nc3ccc(OCc4ccccc4Br)c(Cl)c3)c2cc1OC.Cl", "CSNK1E", "%", 24),
    ("CCC(CC)(CC)n1cnc2c(N)ncnc21", "CSNK1E", "%", 5),
]
